- system.tested: PGE2 receptor EP2 subtype (Mus musculus, UniProt Q62053)
- Construct: endogenous receptor in Neuro-2a cells
- Sequence (Q62053 whole entry): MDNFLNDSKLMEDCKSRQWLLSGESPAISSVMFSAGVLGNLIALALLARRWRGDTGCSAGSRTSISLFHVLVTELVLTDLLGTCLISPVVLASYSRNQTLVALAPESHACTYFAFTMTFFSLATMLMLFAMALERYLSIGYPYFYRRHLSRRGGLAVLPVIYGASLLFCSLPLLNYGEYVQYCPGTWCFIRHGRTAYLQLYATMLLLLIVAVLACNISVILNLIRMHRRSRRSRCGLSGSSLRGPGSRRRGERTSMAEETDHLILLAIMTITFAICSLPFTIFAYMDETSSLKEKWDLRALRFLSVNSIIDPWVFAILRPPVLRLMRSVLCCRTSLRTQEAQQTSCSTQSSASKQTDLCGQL
- test.summary: TR-FRET cAMP assay in Neuro-2a cells (agonist dose-response)
pEC50: −log10 of the molar value.
readout.kind: pEC50

{"compound": "CCCC1([C@H](O)C/C=C/[C@H]2[C@H](O)CC(=O)[C@@H]2CCCCCCC(=O)OC)CCC1 [butaprost]", "endpoint.result": 7.10}
